- Tested on: Enterococcus faecalis
- measurement-description: Antibacterial activity against vancomycin-susceptible Enterococcus faecalis ATCC 29212
- Type: functional
In this section, each of the compounds is paired with its reported MIC.
Number in µg/mL, nothing else.

Look at this compound and give its reported MIC. CCNCCCOc1ccc(/C=C/C(=O)c2ccc3c(c2OC)C=CC(C)(CCC=C(C)C)O3)cc1 (centres undefined)
4

----------
- measurement-description: Selectivity index, ratio of HC50 for hemolytic activity in sheep RBC to MIC for antibacterial activity against methicillin-resistant Staphylococcus aureus ATCC 43300
- Format: toxicity
- condition-context: sheep red blood cells (erythrocytes), read-out: Selectivity Index
Catalogue of selectivity ratio values
Please state the value as a number alone, without comment.

{"compound": "CC(=O)c1c(OCCCNCCCN2CCCC2)c2c(c3c1OC(C)(CCC=C(C)C)C=C3)OC(C)(CCC=C(C)C)C=C2 (centres undefined)", "selectivity ratio": 4.9}
{"compound": "CC(=O)c1ccc2c(c1OCC(=O)NCCN(C)C)C=CC(C)(CCC=C(C)C)O2 (centres undefined)", "selectivity ratio": 4.9}

Reported selectivity ratio, compound CC(=O)c1ccc2c(c1OCCCN(CCCN(C)C)CCCN(C)C)C=CC(C)(CCC=C(C)C)O2 (centres undefined) : ____
5.1

Where do these numbers come from? They come from ChEMBL document CHEMBL5614413.
